B1: FERM and PDZ domain-containing protein 4, residues 75 to 154; numbered along this chain, Q14CM0 (parent)
chain: APRKVEMRRDPVLGFGFVAGSEKPVVVRSVTPGGPSEGKLIPGDQIVMINDEPVSAAPRERVIDLVRSCKESILLTVIQP

Variants of: B1
test: abundance fitness (aPCA) (normalised: wild type 0, dead -1); higher = more abundant; growth selection in yeast, the domain comes from the species named
conditionSet: Homo sapiens
observationType: abundance fitness
Give a plain numeric answer without units written out.

Recorded result, S72H , abundance fitness: -0.015

Recorded result, R28E , abundance fitness: 0.034

Recorded result, E52H , abundance fitness: -0.037

Recorded result, R9D , abundance fitness: -0.792
